System: LNCaP tumor-transplanted mouse
PROCEDURE_TEXT: Internal radioactivity distribution using LNCaP tumor-transplanted mouse
Format: in vivo
CONDITION_DETAILS: 48 h after administration
MEASUREMENT_TYPE: Intestine (% ID/g)
Use % ID/g as the unit, but write only the number.

MOLECULE: O=C([O-])CN1CCN(C(CCC(=O)NCCCC[C@H](NC(=O)N[C@@H](CCC(=O)O)C(=O)O)C(=O)O)C(=O)[O-])CCN(CC(=O)[O-])CCN(C(CCC(=O)Nc2ccccc2)C(=O)[O-])CC1.[111In+3] (some centres unmarked) [[^111In]In-PSMA-DB, reference compound]
Intestine, % ID/g: 0.79

Okay, next one:
# query: Intestine of entry O=C([O-])CN(CCN(CCc1ccc(NC(=O)[C@H](CCCCNC(=O)CCC(=O)NCCCC[C@H](NC(=O)N[C@@H](CCC(=O)O)C(=O)O)C(=O)O)NC(=O)CCCc2ccc(I)cc2)cc1)CCN(CC(=O)[O-])Cc1cccc(C(=O)[O-])n1)Cc1cccc(C(=O)[O-])n1.[111In+3] [[^111In]In-Neunpa-2] 0.23

----------
Tested on: LNCaP tumor-transplanted mouse
PROCEDURE_TEXT: Internal radioactivity distribution using LNCaP tumor-transplanted mouse
Type: in vivo
CONDITION_DETAILS: 192 h after administration
Description: The animal test was performed in compliance with the guidelines of Kyoto University Animal Experiment Committee. […] LNCaP or PC-3 tumor-implanted mice were administered saline solutions (185 kBq, 100 μL) of [^111In]In-PSMA-DA1 or [^111In]In-PSMA-DB from the tail vein (n=3 each). […] Thereafter, blood and each organ were recovered, and the mass and radioactivity of the organs were measured. […]
Kidney values for the compounds below.
Use % ID/g as the unit, but write only the number.

Past entries and their recorded results:
COMPOUND: O=C([O-])CN(Cc1cccc(C(=O)[O-])n1)C[C@H](Cc1ccc(NC(=O)CCCCCNC(=O)CCC(=O)NCCCC[C@H](NC(=O)N[C@@H](CCC(=O)O)C(=O)O)C(=O)O)cc1)N(CC(=O)[O-])Cc1cccc(C(=O)[O-])n1.[111In+3] [[^111In]In-Octapa-1, reference compound]
UNITS_TEXT: % ID/g
READING: 2.16

COMPOUND: O=C([O-])CN(CCN(CCc1ccc(NC(=O)[C@H](CCCCNC(=O)CCC(=O)NCCCC[C@H](NC(=O)N[C@@H](CCC(=O)O)C(=O)O)C(=O)O)NC(=O)CCCc2ccc(I)cc2)cc1)CCN(CC(=O)[O-])Cc1cccc(C(=O)[O-])n1)Cc1cccc(C(=O)[O-])n1.[111In+3] [[^111In]In-Neunpa-2]
UNITS_TEXT: % ID/g
READING: 1.83

COMPOUND: O=C([O-])CN1CCN(C(CCC(=O)NCCCC[C@H](NC(=O)N[C@@H](CCC(=O)O)C(=O)O)C(=O)O)C(=O)[O-])CCN(CC(=O)[O-])CCN(C(CCC(=O)Nc2ccccc2)C(=O)[O-])CC1.[111In+3] (some centres unmarked) [[^111In]In-PSMA-DB, reference compound]
UNITS_TEXT: % ID/g
READING: 3.47

Need Kidney, item O=C(O)CC[C@H](NC(=O)N[C@@H](CCCCNC(=O)[C@H](Cc1ccc2ccccc2c1)NC(=O)[C@H]1CC[C@H](CNC(=O)CCC(C(=O)O)N2CCN(CC(=O)O)CCN(C(CCC(=O)N[C@@H](CCCCNC(=O)CCCc3ccc(I)cc3)C(=O)O)C(=O)O)CCN(CC(=O)O)CC2)CC1)C(=O)O)C(=O)O (some centres unmarked) [[^111In]In-PSMA-NAT-DA1, metal not drawn] 11.9

Please give the measured Kidney for this compound: O=C([O-])CN(CCN(CCc1ccc(NC(=O)CCCCCNC(=O)CCC(=O)NCCCC[C@H](NC(=O)N[C@@H](CCC(=O)O)C(=O)O)C(=O)O)cc1)CCN(CC(=O)[O-])Cc1cccc(C(=O)[O-])n1)Cc1cccc(C(=O)[O-])n1.[111In+3] [[^111In]In-Neunpa-1, reference compound] 2.79

----------
Test system: LNCaP tumor-transplanted mouse
PROCEDURE_TEXT: Internal radioactivity distribution using LNCaP tumor-transplanted mouse
Format: in vivo
CONDITION_DETAILS: 96 h after administration
Catalogue of Brain values
Respond numerically; units are % ID/g and should not be typed.

Reference set, count: 4
MOLECULE: O=C([O-])CN1CCN(C(CCC(=O)NCCCC[C@H](NC(=O)N[C@@H](CCC(=O)O)C(=O)O)C(=O)O)C(=O)[O-])CCN(CC(=O)[O-])CCN(C(CCC(=O)N[C@@H](CCCCNC(=O)CCCc2ccc(I)cc2)C(=O)O)C(=O)[O-])CC1.[111In+3] (some centres unmarked) [[^111In]In-PSMA-DA1]
TARGET_ENTITY: LNCaP tumor-transplanted mouse
UNITS_TEXT: % ID/g
READING: 0.07

MOLECULE: O=C([O-])CN(Cc1cccc(C(=O)[O-])n1)C[C@H](Cc1ccc(NC(=O)CCCCCNC(=O)CCC(=O)NCCCC[C@H](NC(=O)N[C@@H](CCC(=O)O)C(=O)O)C(=O)O)cc1)N(CC(=O)[O-])Cc1cccc(C(=O)[O-])n1.[111In+3] [[^111In]In-Octapa-1, reference compound]
TARGET_ENTITY: LNCaP tumor-transplanted mouse
UNITS_TEXT: % ID/g
READING: 0.01

MOLECULE: O=C([O-])CN(CCN(CCc1ccc(NC(=O)CCCCCNC(=O)CCC(=O)NCCCC[C@H](NC(=O)N[C@@H](CCC(=O)O)C(=O)O)C(=O)O)cc1)CCN(CC(=O)[O-])Cc1cccc(C(=O)[O-])n1)Cc1cccc(C(=O)[O-])n1.[111In+3] [[^111In]In-Neunpa-1, reference compound]
TARGET_ENTITY: LNCaP tumor-transplanted mouse
UNITS_TEXT: % ID/g
READING: 0.03

MOLECULE: O=C([O-])CN(CCN(CCc1ccc(NC(=O)[C@H](CCCCNC(=O)CCC(=O)NCCCC[C@H](NC(=O)N[C@@H](CCC(=O)O)C(=O)O)C(=O)O)NC(=O)CCCc2ccc(I)cc2)cc1)CCN(CC(=O)[O-])Cc1cccc(C(=O)[O-])n1)Cc1cccc(C(=O)[O-])n1.[111In+3] [[^111In]In-Neunpa-2]
TARGET_ENTITY: LNCaP tumor-transplanted mouse
UNITS_TEXT: % ID/g
READING: 0.03

I am curious: what Brain value has been reported for O=C(O)CC[C@H](NC(=O)N[C@@H](CCCCNC(=O)[C@H](Cc1ccc2ccccc2c1)NC(=O)[C@H]1CC[C@H](CNC(=O)CCC(C(=O)O)N2CCN(CC(=O)O)CCN(C(CCC(=O)N[C@@H](CCCCNC(=O)CCCc3ccc(I)cc3)C(=O)O)C(=O)O)CCN(CC(=O)O)CC2)CC1)C(=O)O)C(=O)O (some centres unmarked) [[^111In]In-PSMA-NAT-DA1, metal not drawn] ? 0.18

Recorded Brain for O=C([O-])CN1CCN(C(CCC(=O)NCCCC[C@H](NC(=O)N[C@@H](CCC(=O)O)C(=O)O)C(=O)O)C(=O)[O-])CCN(CC(=O)[O-])CCN(C(CCC(=O)Nc2ccccc2)C(=O)[O-])CC1.[111In+3] (some centres unmarked) [[^111In]In-PSMA-DB, reference compound] , please? 0.09

Please report the recorded Brain for O=C([O-])CN(Cc1cccc(C(=O)[O-])n1)C[C@H](Cc1ccc(NC(=O)[C@H](CCCCNC(=O)CCC(=O)NCCCC[C@H](NC(=O)N[C@@H](CCC(=O)O)C(=O)O)C(=O)O)NC(=O)COCCOCCOCC(=O)N[C@@H](CCCCNC(=O)CCCc2ccc(I)cc2)C(=O)O)cc1)N(CC(=O)[O-])Cc1cccc(C(=O)[O-])n1.[111In+3] [[^111In]In-Octapa-3] . 0.07

I'd like to know its Brain. The molecule in question is O=C([O-])CN(Cc1cccc(C(=O)[O-])n1)C[C@H](Cc1ccc(NC(=O)[C@H](CCCCNC(=O)CCC(=O)NCCCC[C@H](NC(=O)N[C@@H](CCC(=O)O)C(=O)O)C(=O)O)NC(=O)CCCc2ccc(I)cc2)cc1)N(CC(=O)[O-])Cc1cccc(C(=O)[O-])n1.[111In+3] [[^111In]In-Octapa-2] 0.01

----------
System: LNCaP tumor-transplanted mouse
PROCEDURE_TEXT: Internal radioactivity distribution using LNCaP tumor-transplanted mouse
Assay type: in vivo
CONDITION_DETAILS: 96 h after administration
Kidney for assorted molecules
Reply numerically in % ID/g, unit not repeated.

MOLECULE: O=C([O-])CN(CCN(CCc1ccc(NC(=O)[C@H](CCCCNC(=O)CCC(=O)NCCCC[C@H](NC(=O)N[C@@H](CCC(=O)O)C(=O)O)C(=O)O)NC(=O)CCCc2ccc(I)cc2)cc1)CCN(CC(=O)[O-])Cc1cccc(C(=O)[O-])n1)Cc1cccc(C(=O)[O-])n1.[111In+3] [[^111In]In-Neunpa-2]
Kidney, % ID/g: 9.71

Consider the molecule O=C([O-])CN1CCN(C(CCC(=O)NCCCC[C@H](NC(=O)N[C@@H](CCC(=O)O)C(=O)O)C(=O)O)C(=O)[O-])CCN(CC(=O)[O-])CCN(C(CCC(=O)N[C@@H](CCCCNC(=O)CCCc2ccc(I)cc2)C(=O)O)C(=O)[O-])CC1.[111In+3] (some centres unmarked) [[^111In]In-PSMA-DA1] and give its measured Kidney. 3.51
